System: Mus musculus
Procedure summary: In vivo inhibition of FAAH in C57Bl/6J mouse assessed as increase in AEA level in brain at 30 mg/kg, ip after 3 hrs relative to vehicle-treated control
Format: functional
Experimental context: route intraperitoneal
Quantity kind: fold change (FC)

{"Compound": "CS(=O)(=O)/C=C/c1ccc(-c2cnc(C(=O)CCCCCCc3ccccc3)o2)nc1", "System name": "Mus musculus", "Value observed": 2.8}
{"Compound": "CCOS(=O)(=O)/C=C/c1ccc(-c2cnc(C(=O)CCCCCCc3ccccc3)o2)nc1", "System name": "Mus musculus", "Value observed": 3.2}
{"Compound": "N#CCc1ccc(-c2cnc(C(=O)CCCCCCc3ccccc3)o2)nc1", "System name": "Mus musculus", "Value observed": 3.2}
{"Compound": "O=C(CCCCCCc1ccccc1)c1ncc(-c2ccc(CBr)cn2)o1", "System name": "Mus musculus", "Value observed": 3.2}
{"Compound": "C[S+]([O-])/C=C/c1ccc(-c2cnc(C(=O)CCCCCCc3ccccc3)o2)nc1 (stereo not given)", "System name": "Mus musculus", "Value observed": 2.6}

----------
System name: Fatty-acid amide hydrolase 1 (Rattus norvegicus)
Sequence (P97612 whole entry): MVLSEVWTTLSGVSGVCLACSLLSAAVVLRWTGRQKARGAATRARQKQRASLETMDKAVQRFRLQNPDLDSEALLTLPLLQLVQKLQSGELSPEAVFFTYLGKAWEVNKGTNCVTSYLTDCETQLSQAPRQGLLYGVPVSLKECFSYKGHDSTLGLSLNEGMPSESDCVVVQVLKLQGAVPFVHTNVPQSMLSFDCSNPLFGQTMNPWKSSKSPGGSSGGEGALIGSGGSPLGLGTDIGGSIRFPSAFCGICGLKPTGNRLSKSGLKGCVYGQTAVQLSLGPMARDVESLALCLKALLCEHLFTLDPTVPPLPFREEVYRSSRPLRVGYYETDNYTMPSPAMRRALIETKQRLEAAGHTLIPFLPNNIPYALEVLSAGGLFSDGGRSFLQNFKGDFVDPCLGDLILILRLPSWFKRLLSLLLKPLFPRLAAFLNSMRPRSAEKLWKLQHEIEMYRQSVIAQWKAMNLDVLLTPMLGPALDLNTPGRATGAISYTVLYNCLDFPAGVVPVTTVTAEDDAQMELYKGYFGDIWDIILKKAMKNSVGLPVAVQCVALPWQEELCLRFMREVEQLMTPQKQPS
Procedure summary: Time-dependent inhibition of recombinant rat FAAH expressed in Escherichia coli assessed as breakdown of [14C]-oleamide preincubated for 3 hrs by Dixon plot analysis

{"Compound": "O=C(CCCCCCc1ccccc1)c1ncc(-c2ccc(CBr)cn2)o1", "System name": "Fatty-acid amide hydrolase 1 (Rattus norvegicus)", "Ki, nM": 0.2}
{"Compound": "CSCCCCCc1cnc(C(=O)CCCCCCc2ccccc2)o1", "System name": "Fatty-acid amide hydrolase 1 (Rattus norvegicus)", "Ki, nM": 6.4}
{"Compound": "CS(=O)(=O)/C=C/c1ccc(-c2cnc(C(=O)CCCCCCc3ccccc3)o2)nc1", "System name": "Fatty-acid amide hydrolase 1 (Rattus norvegicus)", "Ki, nM": 0.3}
{"Compound": "CSC(=O)c1ccc(-c2cnc(C(=O)CCCCCCc3ccccc3)o2)nc1", "System name": "Fatty-acid amide hydrolase 1 (Rattus norvegicus)", "Ki, nM": 2}

----------
Organism: Mus musculus
Procedure summary: Selectivity ratio of IC50 for mouse brain membrane ABHD6 to IC50 for mouse FAAH
Quantity kind: Ratio IC50

{"Compound": "O=C(CCCCCCc1ccccc1)c1ncc(-c2ccc(CBr)cn2)o1", "Value observed": "> 10000"}
{"Compound": "CS(=O)(=O)/C=C/c1ccc(-c2cnc(C(=O)CCCCCCc3ccccc3)o2)nc1", "Value observed": "> 10000"}
{"Compound": "CCOS(=O)(=O)/C=C/c1ccc(-c2cnc(C(=O)CCCCCCc3ccccc3)o2)nc1", "Value observed": "> 10000"}
{"Compound": "C[S+]([O-])/C=C/c1ccc(-c2cnc(C(=O)CCCCCCc3ccccc3)o2)nc1 (stereo unspecified)", "Value observed": "> 10000"}
{"Compound": "N#CCc1ccc(-c2cnc(C(=O)CCCCCCc3ccccc3)o2)nc1", "Value observed": "> 10000"}
{"Compound": "COC(=N)Cc1ccc(-c2cnc(C(=O)CCCCCCc3ccccc3)o2)nc1", "Value observed": "> 10000"}
